- measured_on: T1, CD134 expressed on the cell surface of HT1080_OX40 cells (human, UniProt P43489 29-277)
- T1 sequence (looked up): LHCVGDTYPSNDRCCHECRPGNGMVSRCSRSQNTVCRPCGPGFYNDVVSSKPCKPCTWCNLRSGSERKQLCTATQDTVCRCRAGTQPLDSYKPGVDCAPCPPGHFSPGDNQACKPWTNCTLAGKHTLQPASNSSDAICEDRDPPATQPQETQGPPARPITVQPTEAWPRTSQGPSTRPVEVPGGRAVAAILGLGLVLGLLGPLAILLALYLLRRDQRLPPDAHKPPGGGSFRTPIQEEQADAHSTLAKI
- protocol_details: cell-based or functional assay; further: test concentration or dose not given here
Rule: Functional assay IL-8 below 0.2 abs. corr. gives yes, anything at or above gives no.

# binder, answer_label
data = [
    ("P018.S.04.A.F05 (antibody, V domains shown, V regions on human Ig constant parts; also called AB134_12) VH: QSVEESGGRLVTPGTPLTLTCTVSGIDLSSYTMGWVRQAPGKGLEYIGIIGTSGTTYYSSWAKGRFTISKTSTTVDLKITSPTTEDTATYFCARLGDDYGDFHFNLWGQGTLVTVSS VL: DLVMTQTPASVSEPVGGTVTIKCQASQNIGNYLAWYQQKPGQPPKLLIYAASNLASGVSSRFKGSGSGTEYTLTISDLESADAATYYCQCTYYDSTYFAFGGGTEVVVK", "yes"),
    ("P018.S.11.A.G05 (antibody, V domains shown, V regions on human Ig constant parts; also called AB134_45) VH: QSLEESGGDLVKPGASLTLTCAASGFSLNNWVMCWVRQAPGKGLEWIACIDIVGSGSTHYATWAKGRFTMSKASSITVTLQMTSLTAADTATYFCARGVNGDGNLNLWGPGTLVTVSS VL: DVVMTQTPASVSEPVGGAVTIKCQASETISNYLAWYQQKPGQRPKLLIYGASNLESGVPSRFKGSGSGTEFTLTISDLESADAATYYCQCTYVGDSYTAFGGGTEVVVK", "yes"),
    ("P018.S.12.A.E02 (antibody, V domains shown, V regions on human Ig constant parts; also called AB134_73) VH: QSVEESGGRLVTPGTPLTLTCTASGFTLSSYYMGWVRQAPGKGLEWIGIIYPSGSAYYATWTKGRFTISRTSTTVDLKVTGPTTEDTATYFCARSTTSSLYYGYNLWGQGTLVTVSS VL: DIVMTQTPASVEAAVGGTVTIKCQASASITNWLAWYQQKPGQPPKLLIYKASTLESGVPSRFKGSGSGTEFTLTISDLESADAASYYCQSNYGGGSDTSHTFGGGTGVVVK", "no"),
    ("P018.S.12.A.H04 (antibody, V domains shown, V regions on human Ig constant parts; also called AB134_90) VH: QSVEESGGRLVTPGTPLTLTCTASGFSLSDYYMSWVRQAPGKGLEWIGFMNSGGNAYYASWASGRFTISKTSTTVDLKITSPTTEDTATYFCVRDLSRFSLWGRGTLVIVSS VL: AAVLTQTPSPVSAAVGGTVTINCQASPSVYSDYLSWFQQKPGQAPKLLIYWASTLTSGVPSRFSGSGSGTQFTLTISDVQSDDAATYYCAGGYSGNSDVWAFGGGTEVVVK", "yes"),
    ("P018.S.11.A.A06 (antibody, V domains shown, V regions on human Ig constant parts; also called AB134_23) VH: QEQLVESGGGLVQPEGSLTLTCKASGFSFSSANCMHWVRQAPEKGLQWIGCVCIGDGTTYYASWVNGRFSISATSSTTVTIQMTSLTAADTATYFCARDLGLWGPGTLVTVSS VL: AIVMTQTPSSKSVPVGDTVTINCQASESVDKYTQCSWYQQKPGQPPKLLIYYASTLASGVPSRFKGSGSGTQFTLTISDVVSDDAATYYCSGYKGGSADMIAFGGGTELVVT", "no"),
]
